Target: human recombinant PDE5 (Homo sapiens)
Assay: cGMP-PDE inhibition, one-step assay with human recombinant PDE5
Conditions: 0.15 μM 8-[H3]-cGMP, 30 min
Checkbox rule: IC50 lower than 60 nM = Satisfied; IC50 not lower than 60 nM = Not satisfied.

>>> df
                                   molecule          label
0  c1coc(-c2ccnc(N3CCc4c([nH]c5ccccc45)C3c3ccc4c(c3)CCO4)n2)c1 (centres unmarked)  Not satisfied
1  c1csc(-c2nccc(N3CCc4c([nH]c5ccccc45)C3c3ccc4c(c3)OCO4)n2)c1 (centres unmarked)      Satisfied
2  O=C(c1ccc(-c2cccnc2)s1)N1CCc2c([nH]c3ccccc23)C1c1ccc2c(c1)OCO2 (centres unmarked)  Not satisfied
3  COc1ccc2cc(C(=O)N3CCc4c([nH]c5ccccc45)C3c3ccc4c(c3)OCO4)sc2c1 (centres unmarked)      Satisfied
4  c1cncc(-c2nccc(N3CCc4c([nH]c5ccccc45)C3c3ccc4c(c3)CCO4)n2)c1 (centres unmarked) [Example 61]      Satisfied
5  CN1CCN(c2nccc(N3CCc4c([nH]c5ccccc45)C3c3ccc4c(c3)OCO4)n2)CC1 (centres unmarked)  Not satisfied
6  O=C(Cc1ccccc1)Nc1ccc(C(=O)N2CCc3c([nH]c4ccccc34)C2c2ccc3c(c2)OCO3)cc1 (centres unmarked)  Not satisfied

----------
Molecular target: human recombinant PDE5 (Homo sapiens)
Assay: cGMP-PDE inhibition, one-step assay with human recombinant PDE5
Conditions: 0.15 μM 8-[H3]-cGMP, 30 min
Experimental: The compounds of structural formula (I) were tested for an ability to inhibit PDE5. The ability of a compound to inhibit PDE5 activity is related to the IC50 value for the compound, i.e., the concentration of inhibitor required for 50% inhibition of enzyme activity. The IC50 value for compounds pounds of structural formula (I) were determined using recombinant human PDE5. […] cGMP-PDE activity of compounds of the present invention was measured using a one-step assay adapted from Wells et al., Biochim. […]
Listed here: items and their measured log10 of IC50.
assay-endpoint: log10 of IC50 (log10 of the value in µM)

molecule	log10 of IC50
c1ccc2c3c([nH]c2c1)C(c1ccc2c(c1)CCO2)N(c1ccnc(N2CCCCC2)n1)CC3 (stereo not drawn)	-0.12
c1csc(-c2nccc(N3CCc4c([nH]c5ccccc45)C3c3ccc4c(c3)CCO4)n2)c1 (stereo not drawn)	-1.30
CC(=O)Oc1ccc(-c2cc(N3CCc4c([nH]c5ccccc45)C3c3ccc4c(c3)CCO4)ncn2)cc1 (stereo not drawn)	-2.52
O=C(Cc1csc2ccccc12)N1CCc2c([nH]c3ccccc23)C1c1ccc2c(c1)OCO2 (stereo not drawn)	-0.44
O=C(c1cc2c([N+](=O)[O-])cccc2s1)N1CCc2c([nH]c3ccccc23)C1c1ccc2c(c1)OCO2 (stereo not drawn)	-0.70
COc1cc2cnc(N3CCc4c([nH]c5ccccc45)C3c3ccc4c(c3)OCO4)nc2cc1OC (stereo not drawn) [Example 47b]	-2.30
Cc1nccn1-c1cc(N2CCc3c([nH]c4ccccc34)C2c2ccc3c(c2)CCO3)ncn1 (stereo not drawn)	-1.70
O=C(c1ccc(CN2CCOCC2)s1)N1CCc2c([nH]c3ccccc23)C1c1ccc2c(c1)OCO2 (stereo not drawn)	-0.40
c1ccc2c3c([nH]c2c1)C(c1ccc2c(c1)CCO2)N(c1ccnc(-n2ccnc2)n1)CC3 (stereo not drawn)	-1.22
c1cnc(N2CCc3c([nH]c4ccccc34)C2c2ccc3c(c2)OCO3)nc1 (stereo not drawn)	-0.11
Cc1cn(-c2cc(N3CCc4c([nH]c5ccccc45)C3c3ccc4c(c3)CCO4)ncn2)cn1 (stereo not drawn)	-2.00
Cc1c(S(=O)(=O)N2CCc3c([nH]c4ccccc34)[C@H]2c2ccc3c(c2)OCO3)sc2ccc(Cl)cc12	-0.66
COC(=O)CC(=O)Nc1ccc2sc(C(=O)N3CCc4c([nH]c5ccccc45)C3c3ccc4c(c3)OCO4)cc2c1 (stereo not drawn)	-1.22
COc1ccc(-c2cc(N3CCc4c([nH]c5ccccc45)C3c3ccc4c(c3)CCO4)ncn2)cc1 (stereo not drawn)	-2.40
COc1cc2nc(N3CCc4c([nH]c5ccccc45)C3c3ccc4c(c3)OCO4)[nH]c(=O)c2cc1OC (stereo not drawn)	-2.30
O=C(c1ccc2ccccc2c1)N1CCc2c([nH]c3ccccc23)C1c1ccc2c(c1)OCO2 (stereo not drawn)	-0.25
c1ccc(-c2ccnc(N3CCc4c([nH]c5ccccc45)C3c3ccc4c(c3)OCO4)n2)cc1 (stereo not drawn)	-1.52
O=C(O)CC(=O)Nc1ccc2sc(N3CCc4c([nH]c5ccccc45)C3c3ccc4c(c3)OCO4)cc2c1 (stereo not drawn)	-1.70
CN(C)CC(=O)Nc1ccc(C(=O)N2CCc3c([nH]c4ccccc34)C2c2ccc3c(c2)OCO3)o1 (stereo not drawn)	-0.62
Cc1ncn(-c2cc(N3CCc4c([nH]c5ccccc45)C3c3ccc4c(c3)CCO4)ncn2)c1C (stereo not drawn)	-1.70
COc1ccc(-c2ccnc(N3CCc4c([nH]c5ccccc45)C3c3ccc4c(c3)OCO4)n2)cc1 (stereo not drawn)	-2.00
O=C(C#Cc1ccccc1)N1CCc2c([nH]c3ccccc23)C1c1ccc2c(c1)OCO2 (stereo not drawn)	-0.72
Cc1nccn1-c1nccc(N2CCc3c([nH]c4ccccc34)C2c2ccc3c(c2)CCO3)n1 (stereo not drawn)	-1.40
CN(C)CCOc1ccc(-c2cc(N3CCc4c([nH]c5ccccc45)C3c3ccc4c(c3)CCO4)ncn2)cc1 (stereo not drawn)	-2.30
c1ccc2c3c([nH]c2c1)C(c1ccc2c(c1)CCO2)N(c1cc(-n2ccnc2)ncn1)CC3 (stereo not drawn)	-1.70
O=C(Cn1ccnc1)Nc1ccc2sc(C(=O)N3CCc4c([nH]c5ccccc45)C3c3ccc4c(c3)OCO4)cc2c1 (stereo not drawn)	-1.40
CN(C)Cc1ccc2sc(C(=O)N3CCc4c([nH]c5ccccc45)C3c3ccc4c(c3)OCO4)cc2c1 (stereo not drawn)	-0.54
O=C(c1cc2c(Br)cccc2s1)N1CCc2c([nH]c3ccccc23)C1c1ccc2c(c1)OCO2 (stereo not drawn)	-0.39
NC(=O)c1ccc(C(=O)N2CCc3c([nH]c4ccccc34)C2c2ccc3c(c2)OCO3)cc1 (stereo not drawn)	-0.26
O=C(/C=C/c1cccc(CCC(=O)N2CCc3c([nH]c4ccccc34)C2c2ccc3c(c2)OCO3)c1)N1CCc2c([nH]c3ccccc23)C1c1ccc2c(c1)OCO2 (stereo not drawn) [Example 13a]	-0.32
